Exercise: for every item that follows, state its recorded PBM binding z-score.
System: RARg homodimer (NR concentration 270 nM)
Test: PBM binding z-score (relative to random genomic background probes); higher = stronger binding; sequences stand for … in GC…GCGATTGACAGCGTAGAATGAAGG
No unit in the answer, only the number.

For `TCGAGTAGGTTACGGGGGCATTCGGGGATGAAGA` the sequence record lists PBM binding z-score as 2.38

Entry `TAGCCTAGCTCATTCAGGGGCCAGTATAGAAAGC` ; PBM binding z-score = -0.378

// `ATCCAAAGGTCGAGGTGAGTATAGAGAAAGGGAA` : PBM binding z-score value = 4.83

Note to self: PBM binding z-score recorded for `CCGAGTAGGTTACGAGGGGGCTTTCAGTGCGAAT` was 1.36

Briefly, PBM binding z-score measured for `TGAATGAGGTTAAAGGTCAGGGAACGTGGCGTCG` : 5.51

Please fill in: PBM binding z-score reported for `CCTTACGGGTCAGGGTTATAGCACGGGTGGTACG` = 3.8

`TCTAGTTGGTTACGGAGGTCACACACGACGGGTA` has a reported PBM binding z-score of 3.66

Documented PBM binding z-score of `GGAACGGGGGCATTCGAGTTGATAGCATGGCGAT` : 2.39

Measured PBM binding z-score of `CTATTTAGGTTAAGGGGGTCATTCAGTTTGAAAG` : 4.01

Sample `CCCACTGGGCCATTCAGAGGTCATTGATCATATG` ; PBM binding z-score observed: 3.31

PBM binding z-score measured on `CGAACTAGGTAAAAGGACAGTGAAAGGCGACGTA` = 0.964

Note to self: PBM binding z-score recorded for `TCGAGTAGGTTACGGGGGGATTCAGGGATGAAGA` was 2.33

====

I'd be grateful if you could share measured PBM binding z-score for these entries.
System: RXRa DBDmut IVT, anti-RXR (DBD mutation: RXRa K156A/R161A, NR concentration 90 nM)
Assay: PBM binding z-score (relative to random genomic background probes); higher = stronger binding; sequences stand for … in GC…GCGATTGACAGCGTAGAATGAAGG
Just the number, please.

Per the record, `CTCGAAAGGTCGTGGTCAGGTGAGTATACCAAAC` has PBM binding z-score of 1.88

The recorded PBM binding z-score for `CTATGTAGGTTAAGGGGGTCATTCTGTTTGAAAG` is 2.56

PBM binding z-score recorded for this sequence, `CAAACTAGGTCACGAAAGGTCAAAGCCGAATGAC` , is 2.11

Memo: `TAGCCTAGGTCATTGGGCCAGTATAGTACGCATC` , reported PBM binding z-score: 1.6

# PBM binding z-score (sequence: `TAGCCTAGGTCACGGGCCAGTATACCACGCGAAC` ) is 0.27

Lab note: `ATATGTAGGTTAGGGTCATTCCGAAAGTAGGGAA` gave PBM binding z-score of 2.61

// PBM binding z-score value for `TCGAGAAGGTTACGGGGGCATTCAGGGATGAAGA` : 2.36

Record summary for `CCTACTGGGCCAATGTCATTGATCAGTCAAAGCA` : reported PBM binding z-score = -0.907

====

System: PPARa:RXRa (NR concentration 270 nM, RXRa partner concentration 90 nM)
Experiment: PBM binding z-score (relative to random genomic background probes); higher = stronger binding; sequences stand for … in GC…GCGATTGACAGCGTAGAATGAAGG
test readout: PBM binding z-score

Quick note, PBM binding z-score for `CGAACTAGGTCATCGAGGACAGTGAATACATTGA` landed at 4.86

Sample `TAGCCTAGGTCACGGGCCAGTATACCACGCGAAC` ; PBM binding z-score observed: 5.41

Notebook: `CTATGTACGTTAAGGGGGTCATTCAGTTTGAAAG` , PBM binding z-score read as 5.53

Entry `TAGCCTAGGTCAGATCGGGGCAGTATACGCTATA` , PBM binding z-score reported as 1.93

Consider `ATCTCTAGGTAAATGTTCAGTGAATCCCGAGGAT` . Its measured PBM binding z-score is 0.133

Recorded PBM binding z-score (sequence `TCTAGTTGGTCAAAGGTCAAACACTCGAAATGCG` ): 6.82

`CCGAGTAGGTTACGAGGGGGCAATCAGTGCGAAT` has a reported PBM binding z-score of 3.34

Lab note: `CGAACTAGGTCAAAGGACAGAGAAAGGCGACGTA` gave PBM binding z-score of 5.58

Item: `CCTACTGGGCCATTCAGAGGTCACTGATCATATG` | PBM binding z-score: 3.77
